# MEASURED_TARGET: 5-HT1A receptors (Homo sapiens, UniProt P08908)
# Construct: Gibco Biocult; Laboratory, Paisley UK; host or cells: unspecified cells; membrane preparation
# Sequence (P08908 whole entry): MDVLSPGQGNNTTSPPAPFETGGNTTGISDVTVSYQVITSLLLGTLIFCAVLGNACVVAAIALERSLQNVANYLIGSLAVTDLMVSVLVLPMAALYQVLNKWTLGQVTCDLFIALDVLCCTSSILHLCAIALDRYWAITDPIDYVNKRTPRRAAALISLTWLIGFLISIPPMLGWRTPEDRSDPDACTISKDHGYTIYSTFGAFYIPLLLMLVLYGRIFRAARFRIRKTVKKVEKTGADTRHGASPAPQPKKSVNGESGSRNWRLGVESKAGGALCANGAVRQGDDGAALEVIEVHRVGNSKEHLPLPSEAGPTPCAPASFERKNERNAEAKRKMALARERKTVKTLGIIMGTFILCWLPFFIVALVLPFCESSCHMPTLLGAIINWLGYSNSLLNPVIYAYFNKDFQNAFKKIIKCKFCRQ
# MEASUREMENT_DESCRIPTION: Efficacy: stimulation of [35S]GTPγS binding in a cell membrane preparation
# Assay type: biochemical
# STATED_CONDITIONS: [35S]GTPγS binding, maximum stimulation defined with serotonin (10 μmmol); read-out: % stimulation Maximum effect
Give Emax for every item shown.
Respond with the figure and its unit, in that order.

Query :: Look up Emax for this compound: `O=C1CC2(CCCC2)CC(=O)N1CCCCN1CCN(c2ncccn2)CC1`
Result :: 22%

Query :: # repeat for Cc1ccc(CNCC2(F)CCN(C(=O)c3ccc(F)c(Cl)c3)CC2)nc1 [Compound I-66, reference compound]
Result :: 75%

Query :: Continue with `Cc1ccc(CNCC2(Cl)CCN(C(=O)c3ccc(F)c(Cl)c3)CC2)nc1`
Result :: 100%

Query :: # iterate: `Cc1ccc(CNCC2(F)CCN(C(=O)c3ccc(F)c(Cl)c3)CC2)nn1`
Result :: 90%

====

Counter-ions that a name gives are not always drawn.
MEASUREMENT_TYPE: melting point (°C)
Numbers only; they are read as °C.

Query :: Please give the measured melting point for this molecule: Cc1ccc(CNCC2(F)CCN(C(=O)c3ccc(F)c(F)c3)CC2)nc1 (as salt: fumarate)
Result :: 158

Query :: Field entry: Cc1ccc(CNCC2(F)CCN(C(=O)c3cccc(C(F)(F)F)c3)CC2)nc1 (as salt: hydrochloride)
Result :: 172

Query :: Item: Cc1ccc(CNCC2(F)CCN(C(=O)c3ccc(F)c(C#N)c3)CC2)nc1 (as salt: fumarate)
Result :: 175

Query :: Similarly, Cc1ccc(CNCC2(F)CCN(C(=O)c3ccc(Cl)c(F)c3)CC2)nc1 (as salt: fumarate) ?
Result :: 150

Query :: How about this molecule: Cc1cnc(CNCC2(F)CCN(C(=O)c3ccc(Cl)c(Cl)c3)CC2)nc1 (as salt: fumarate)
Result :: 161

====

Answer each item with its documented Ki.
# MEASURED_TARGET: dopaminergic D2 receptors (Rattus norvegicus, UniProt P61169)
# Construct: For these experiments, rat striatum is used; from tissue; host or cells: rat striatum homogenate
# Sequence (P61169 whole entry): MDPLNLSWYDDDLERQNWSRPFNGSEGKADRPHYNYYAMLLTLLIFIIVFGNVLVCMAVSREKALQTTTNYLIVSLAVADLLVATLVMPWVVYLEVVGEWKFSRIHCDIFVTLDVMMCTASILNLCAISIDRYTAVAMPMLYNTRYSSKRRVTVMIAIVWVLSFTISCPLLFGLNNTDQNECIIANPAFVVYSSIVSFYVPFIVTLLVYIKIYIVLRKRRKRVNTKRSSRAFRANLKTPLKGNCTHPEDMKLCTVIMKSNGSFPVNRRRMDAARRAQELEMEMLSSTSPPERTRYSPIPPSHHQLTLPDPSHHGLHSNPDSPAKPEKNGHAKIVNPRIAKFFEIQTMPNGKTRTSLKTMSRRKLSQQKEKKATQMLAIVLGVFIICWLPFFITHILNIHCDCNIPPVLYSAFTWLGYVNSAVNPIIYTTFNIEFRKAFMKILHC
# MEASUREMENT_DESCRIPTION: Affinity for the D2 receptors, displacement of [3H]YM-09151-2
# Assay type: binding
# STATED_CONDITIONS: D2 pKi, rat striatum, [3H]YM-09151-2 displacement, mean of at least 3 experiments
// units = µM; emit number, no label

Query :: Item CCCN(CCC)C1CCc2cccc(O)c2C1 (centres unmarked) [Compound 8-OH-DPAT, 8-hydroxy-2-di-n-propylaminotetralin, reference compound] has what recorded Ki?
Result :: 0.631

Query :: # repeat for CCCN(CCC)C1CCc2cccc(O)c2C1 (single isomer, unassigned; (+)) [(+)-8-OH-DPAT, reference compound]
Result :: 0.794

====

# MEASURED_TARGET: 5-HT1A receptors (Rattus norvegicus, UniProt P19327)
# Construct: For these experiments, rat cerebral cortices are used; from tissue; host or cells: rat cerebral cortex homogenate
# Sequence (P19327 whole entry): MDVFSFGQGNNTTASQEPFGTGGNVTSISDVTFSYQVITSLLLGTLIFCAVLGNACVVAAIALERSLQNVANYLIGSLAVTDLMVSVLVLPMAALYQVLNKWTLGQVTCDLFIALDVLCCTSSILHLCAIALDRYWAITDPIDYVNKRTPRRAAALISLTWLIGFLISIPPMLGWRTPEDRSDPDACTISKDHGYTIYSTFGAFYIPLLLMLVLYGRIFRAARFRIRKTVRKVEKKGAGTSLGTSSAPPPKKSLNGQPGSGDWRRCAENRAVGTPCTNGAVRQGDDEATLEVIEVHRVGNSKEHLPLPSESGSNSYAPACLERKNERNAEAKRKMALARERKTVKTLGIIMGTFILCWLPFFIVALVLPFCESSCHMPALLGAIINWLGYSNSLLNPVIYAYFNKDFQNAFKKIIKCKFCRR
# MEASUREMENT_DESCRIPTION: Affinity for the 5-HT1A receptors, displacement of [3H]8-OH-DPAT
# Format: binding
MEASUREMENT_TYPE: Ki (nM)
Your answer should be a plain number; it is taken to be in nM.

Query :: Which value of Ki has been reported for Cc1ccc(CNCC2(F)CCN(C(=O)c3ccc(F)c(Cl)c3)CC2)nc1 [Compound I-66, reference compound] in the records?
Result :: 0.794

====

Where a name gives a salt, the structure may show the parent alone.
Task for the reader: assign each of the following compounds its reported melting point.

Query :: Form field: reported melting point of Cc1ccc(CNCC2(F)CCN(C(=O)c3ccc(F)c(Cl)c3)CC2)nn1 (as salt: hydrochloride)
Result :: 205 °C (dec.)

Query :: Could you do the same for Cc1ccc(CNCC2(Cl)CCN(C(=O)c3ccc(F)c(Cl)c3)CC2)nc1 (as salt: hydrochloride) , please?
Result :: 190 °C (dec.)

Query :: Request: O=C(c1ccc(F)c(Cl)c1)N1CCC(F)(CNCc2ccc(Cl)cn2)CC1 (as salt: fumarate)
Result :: 160 to 162 °C

Query :: Please do the same for N#Cc1ccc(CNCC2(F)CCN(C(=O)c3ccc(F)c(Cl)c3)CC2)nc1 (as salt: fumarate) as well.
Result :: 170 to 172 °C

Query :: Field entry: Cc1ccc(CNCC2(F)CCN(C(=O)c3ccc(Cl)c(Cl)c3)CC2)nn1 (as salt: oxalate)
Result :: 203 °C (dec.)

Query :: Please do the same for O=C(c1ccc(F)c(Cl)c1)N1CCC(F)(CNCc2ccc(O)cn2)CC1 (as salt: fumarate) as well.
Result :: 225 to 227 °C

Query :: // next record O=C(c1ccc(F)c(Cl)c1)N1CCC(F)(CNCc2ccc(CF)cn2)CC1 (as salt: fumarate)
Result :: 157 to 159 °C
